# Target: T1, Human GAL3 protein (TrueBinding, QCB200349 / QCB200352; R&D Systems, 8259-GA) (human, UniProt P17931 2-250)
# T1 construct: also called human galectin-3
# T1 sequence (P17931 2-250 limits assumed): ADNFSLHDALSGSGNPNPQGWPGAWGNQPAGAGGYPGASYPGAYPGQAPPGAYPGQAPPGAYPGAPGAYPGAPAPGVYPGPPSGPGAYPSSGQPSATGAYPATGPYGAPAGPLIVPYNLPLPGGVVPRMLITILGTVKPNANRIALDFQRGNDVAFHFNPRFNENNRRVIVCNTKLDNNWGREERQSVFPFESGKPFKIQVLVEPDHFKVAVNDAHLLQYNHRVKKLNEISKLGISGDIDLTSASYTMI
# Assay info: blocking ELISA (GAL3 coated; antibody + biotinylated ITGaV); further: test concentration or dose not given here
Attribute measured: percent blockade of GAL3-ITGaV interaction

# Binder, Value
rows = [
    ("IMT001 (TB001) (antibody, V domains shown, anti-Gal3 antibody; also called IMT001-4) VH: QVQLVQSGSELKKPGASVKVSCKASGYTFTNYGMNWVRQAPGQGLKWMGWINTNTGEPTYVEEFTGRFVFSLETSVSTAYLQISSLKAEDTAVYFCAPYDNFFAYWGQGTTVTVSS VL: DIVLTQSPLSLPVTPGEPASISCRSSKSLLYKDGKTYLNWFLQKPGQSPQLLIYLMSTHASGVPDRFSGSGSGTDFTLKISRVEAEDVGVYYCQQLVDYPLTFGGGTKLEIK", "> 90%"),
    ("19B5.2E6 (antibody, V domains shown) VH: QIQLVQSGPELKKPGETVKISCKASGYTFTTYAMSWVKQAPGKGLKWMGWINTYSGVPTYADDLKGRFAFSLETSASTAYLQINNLKNEDTATYFCARGPYAMDYWGQGTSVTVSS VL: DIQMTQTTSSLSASLGDRVTISCSASQGINNYLNWYQQKPDGTVKLLIYYASSLHSGVPSRFSGSGSGTDYSLTISNLEPEDIATYYCQQYSQVPYTFGSGTKLEIK", "> 90%"),
    ("F846C.1F5 (antibody, V domains shown, also called 846.1F5) VH: QIQLVQSGPELKKPGETVKISCKASGYTFTNYGMNWVKQAPGKGLKWMGWINTYTGEPSYADDFKGRFAFSLETSASTAYLQINNLKNEDMATYFCARWGGYDGDYYAMDYWGQGTSVTVSS VL: NIMMTQSPSSLAVSAGEKVTMSCKSSQSVLYSSNQKNYLAWYQQKPGQSPKLLIYWASTRESGVPDRFTGSGSGTDFTLTISSVQPEDLAVYYCHQYLSSLTFGAGTKLELK", "> 90%"),
]
